test: Human HepG2 cell viability assay in 384 well format; type: toxicity, cell-based; design: dose 125 nL, time 70.5 hour; concentration not given beside the values; settings: HepG2 cells, read-out: Inhibition
Measured cytotoxicity at 70.5 h, listed per entry.
Quick reminder: number only, in %, skip the unit.

- compound: "CC(=O)Nc1ccc(CNc2cccc(CS(C)(=O)=O)c2)cc1"
  endpoint: "cytotoxicity at 70.5 h"
  u: "%"
  measured.result: -3.91
- compound: "CCOC[C@H]1CC[C@H]2[C@H](CCN2S(=O)(=O)Cc2ccccc2)O1"
  endpoint: "cytotoxicity at 70.5 h"
  u: "%"
  measured.result: -1.8

Problem: Dear colleague, I am looking for the recorded cytotoxicity at 70.5 h of the following compound: `Cc1ccc(CN2CCc3ncnc(OC(C)C)c3CC2)s1`
Result: -6.82

Problem: Dear colleague, I am looking for the recorded cytotoxicity at 70.5 h of the following compound: `Cc1nnsc1CN(C)C(=O)CCn1cnc2ccccc21`
Result: -9.98

Problem: Dear colleague, I am looking for the recorded cytotoxicity at 70.5 h of the following compound: O=C(COc1ccc2c(c1)CCC2)N1CCCC1c1ccc[nH]1 (stereo unspecified)
Result: -23.1

Problem: Dear colleague, I am looking for the recorded cytotoxicity at 70.5 h of the following compound: O=C1CN(C(=O)CC2C(=O)NCCN2CC2CCCCC2)CCN1 (stereo unspecified)
Result: 28.9

Problem: Dear colleague, I am looking for the recorded cytotoxicity at 70.5 h of the following compound: Cc1noc(C)c1C(=O)N1Cc2ncn(C)c2C(COCC2CC2)C1 (stereo unspecified)
Result: -7.58

Problem: Dear colleague, I am looking for the recorded cytotoxicity at 70.5 h of the following compound: `Cc1cc(C(=O)NC2CCN(c3nnc(C)c(C)c3C#N)CC2)no1`
Result: -6.5

Problem: Dear colleague, I am looking for the recorded cytotoxicity at 70.5 h of the following compound: `FC(F)(F)CCc1ccnc(N2CCN(CCc3ccncc3)CC2)n1`
Result: -6.22

Problem: Dear colleague, I am looking for the recorded cytotoxicity at 70.5 h of the following compound: CCc1n[nH]c(C2CN(C(=O)CCn3ccccc3=O)CCO2)n1 (stereo unspecified)
Result: -2.35

Problem: Dear colleague, I am looking for the recorded cytotoxicity at 70.5 h of the following compound: `CCN1C(=O)C[C@@H]2[C@@H]1CCN2S(=O)(=O)c1ccc(OC)cc1`
Result: 9.29

====

test: Human HepG2 cell viability assay in 384 well format; format: toxicity, cell-based; design: dose 125 nL, time 70.5 hour; concentration not given beside the values; conditions: HepG2 cells, read-out: Inhibition
endpoint: cytotoxicity at 70.5 h (%)
Quick reminder: number only, in %, skip the unit.

Use the examples below as a reference point.
- compound: "O=C1C(NCc2ccccc2O)CCN1Cc1ccccc1 (centres undefined)"
  u: "%"
  cytotoxicity at 70.5 h: 18.3
- compound: "Cc1ccc(C(=O)N2CCn3c(COCC4CC4)cnc3C2C)nc1 (centres undefined)"
  u: "%"
  cytotoxicity at 70.5 h: -8.57

Problem: Dear colleague, I am looking for the recorded cytotoxicity at 70.5 h of the following compound: `COCC(=O)N1CCc2ccc(=O)n(Cc3csc(C)n3)c2CC1`
Result: -6.47

Problem: Dear colleague, I am looking for the recorded cytotoxicity at 70.5 h of the following compound: COc1cc(CNC2CCc3nc(C(C)C)nn3C2)cc2c1OCO2 (centres undefined)
Result: -13.1

From: ChEMBL document CHEMBL3507680
